Sourced from PubChem BioAssay (NCI)

Tested on: KM12 colon
Test: NCI tumour cell line growth inhibition, 48 h

compound	TGI
NNC(=O)c1n[nH]nc1C(=O)NN	> 100 µM
O=C(CSc1nc2ccccc2nc1-c1ccccc1)Nc1ccc(F)cc1	> 100 µM
COc1ccc2cc(/C=N/NC(=O)Nc3ccccc3)ccc2c1	> 100 µM
NCCNc1c2c(c(NCCN)c3[nH]ccc13)C(=O)c1ccccc1C2=O	0.957 µM
CCCCNC(=S)Nc1nc(C(=O)NNC(=S)Nc2ccccc2)cs1	> 100 µM
CCN1CCC(O)(c2ccc(OC)cc2)C(C(=O)c2ccc(OC)cc2)C1 (stereo unspecified)	42.1 µM
C1CN2CCN3CCN4CCN1[P+]243	> 100 µM
O=C(N[C@@H](c1ccc(Cl)c(Cl)c1)C1CNC1)c1ccc2cnccc2c1	4.44 µM
O=C(Nc1nc(=S)c2c(ncn2CCOC(=O)c2ccccc2)[nH]1)c1ccccc1	> 100 µM
N#Cc1c(-c2ccc(Cl)cc2Cl)nc2[nH][nH]c(=S)n2c1=O	> 100 µM
CCOc1ccc(NC(=O)CC#N)cc1	> 100 µM
